Data origin, for the record: patent US9642835B2

Exercise: state measured Emax for each of the compounds provided.
Target: Cdc42 WT (Homo sapiens, UniProt P60953)
Construct: purchased Cytoskeleton
Sequence (P60953 whole entry): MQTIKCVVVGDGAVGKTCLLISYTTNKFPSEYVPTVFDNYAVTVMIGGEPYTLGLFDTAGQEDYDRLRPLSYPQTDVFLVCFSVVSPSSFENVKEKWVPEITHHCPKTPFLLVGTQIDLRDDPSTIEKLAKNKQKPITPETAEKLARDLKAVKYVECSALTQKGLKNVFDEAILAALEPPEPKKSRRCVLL
Assay: Bead-based flow cytometry dose response, BODIPY-FL-GTP binding
Details: Table 6, R3 analogs; read-out: Cdc42 WT Efficacy
Procedure: Bead sets for multiplex assays were custom synthesized by Duke Scientific Corp (Fremont, Calif.), but may now be ordered from Thermo/Fisher. […] The resulting time-dependent data (one file per plate) were analyzed using IDLQuery software to determine the compound activity in each well. […] Gating based on FL8 emission distinguishes the beads coated with different proteins, and the median fluorescence per bead population was calculated. […]
One number for each entry, in %.

Consider the reported Emax for these compounds:
1. NS(=O)(=O)c1ccc(N2N=C(c3ccccc3)CC2c2cccc(Cl)c2)cc1 (centres unmarked)
64
2. COc1ccc(C2CC(c3ccccc3)=NN2c2ccc(S(N)(=O)=O)cc2)cc1OC (centres unmarked)
75
3. NS(=O)(=O)c1ccc(N2N=C(c3ccccc3)CC2c2cccc(Br)c2)cc1 (centres unmarked)
55
4. Cc1ccc(C2CC(c3ccccc3)=NN2c2ccc(S(N)(=O)=O)cc2)cc1 (centres unmarked)
66
5. NS(=O)(=O)c1ccc(N2N=C(c3ccccc3)CC2c2ccc(Cl)cc2)cc1 (centres unmarked)
69
6. Cc1ccccc1C1CC(c2ccccc2)=NN1c1ccc(S(N)(=O)=O)cc1 (centres unmarked)
55

For each of the compounds below, note its Emax.
1. NS(=O)(=O)c1ccc(N2N=C(c3ccccc3)CC2c2ccccc2Cl)cc1 (centres unmarked)
2. COc1ccccc1C1CC(c2ccccc2)=NN1c1ccc(S(N)(=O)=O)cc1 (centres unmarked)

[39, 45]

###

Biological target: Cdc42 WT (Homo sapiens, UniProt P60953)
Construct: purchased Cytoskeleton
Experiment: Bead-based flow cytometry dose response, BODIPY-FL-GTP binding
Conditions: Table 6, R3 analogs; read-out: Cdc42 WT EC50
Exercise: state measured pEC50 for each of the compounds provided.
Give bare numbers, as −log10 of the molar value.

Consider the reported pEC50 for these compounds:
1) NS(=O)(=O)c1ccc(N2N=C(c3ccccc3)CC2c2ccccc2Cl)cc1 (stereo not drawn)
5.14
2) COc1ccccc1C1CC(c2ccccc2)=NN1c1ccc(S(N)(=O)=O)cc1 (stereo not drawn)
4.65
3) NS(=O)(=O)c1ccc(N2N=C(c3ccccc3)CC2c2cccc(Cl)c2)cc1 (stereo not drawn)
5.48

For each of the compounds below, note its pEC50.
1. Cc1ccccc1C1CC(c2ccccc2)=NN1c1ccc(S(N)(=O)=O)cc1 (stereo not drawn)
2. Cc1cccc(C2CC(c3ccccc3)=NN2c2ccc(S(N)(=O)=O)cc2)c1 (stereo not drawn)
3. COc1cccc(C2CC(c3ccccc3)=NN2c2ccc(S(N)(=O)=O)cc2)c1 (stereo not drawn)

1: 4.78; 2: 5.30; 3: 5.32

###

Exercise: state measured Emax for each of the compounds provided.
Molecular target: Cdc42 WT (Homo sapiens)
Construct: purchased Cytoskeleton
Assay: Bead-based flow cytometry dose response, BODIPY-FL-GTP binding
Details: Table 5, R2 analogs; read-out: Cdc42 WT Efficacy
Numbers only, in %.

Consider the reported Emax for these compounds:
1) COc1ccc(C2CC(c3ccccc3OC)=NN2c2ccc(S(N)(=O)=O)cc2)cc1 (stereo not shown)
59
2) COc1ccc(C2CC(C(C)(C)C)=NN2c2ccc(S(N)(=O)=O)cc2)cc1 (stereo not shown)
33
3) COc1ccc(C2=NN(c3ccc(S(N)(=O)=O)cc3)C(c3ccc(OC)cc3)C2)cc1 (stereo not shown)
38

Proceeding to the next compound to report its Emax.
May I ask what Emax has been recorded for COc1ccc(C2CC(c3cccs3)=NN2c2ccc(S(N)(=O)=O)cc2)cc1 (stereo not shown) ?
57

###

Target: Cdc42 ACT (Cdc42Q61L) (Homo sapiens, UniProt P60953, Q61L)
Sequence (P60953 whole entry Q61L): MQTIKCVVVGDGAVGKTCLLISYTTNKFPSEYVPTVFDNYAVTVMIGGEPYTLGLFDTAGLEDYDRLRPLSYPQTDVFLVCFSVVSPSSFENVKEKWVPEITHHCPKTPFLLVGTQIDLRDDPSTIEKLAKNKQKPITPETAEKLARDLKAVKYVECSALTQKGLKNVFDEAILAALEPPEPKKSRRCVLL
Experiment: Bead-based flow cytometry dose response, BODIPY-FL-GTP binding
Settings: Table 6, R3 analogs; read-out: Cdc42 ACT EC50
# label = Satisfied if EC50 < 5 µM else Not satisfied

hey, is EC50 for NS(=O)(=O)c1ccc(N2N=C(c3ccccc3)CC2c2cccc(F)c2)cc1 (centres unmarked) lower than 5 µM or not?
Not satisfied

hey, is EC50 for NS(=O)(=O)c1ccc(N2N=C(c3ccccc3)CC2c2ccccc2Br)cc1 (centres unmarked) lower than 5 µM or not?
Not satisfied

hey, is EC50 for Cc1cccc(C2CC(c3ccccc3)=NN2c2ccc(S(N)(=O)=O)cc2)c1 (centres unmarked) lower than 5 µM or not?
Not satisfied

###

Target: Cdc42 WT (Homo sapiens, UniProt P60953)
Construct: purchased Cytoskeleton
Test: Bead-based flow cytometry dose response, BODIPY-FL-GTP binding
Conditions: Table 6, R3 analogs; read-out: Cdc42 WT Efficacy
Exercise: state measured Emax for each of the compounds provided.
Give bare numbers, in %.

Consider the reported Emax for these compounds:
1) NS(=O)(=O)c1ccc(N2N=C(c3ccccc3)CC2c2ccc(Br)cc2)cc1 (stereo not drawn)
56
2) Cc1cccc(C2CC(c3ccccc3)=NN2c2ccc(S(N)(=O)=O)cc2)c1 (stereo not drawn)
55

Proceeding to the next compound to report its Emax.
May I ask what Emax has been recorded for NS(=O)(=O)c1ccc(N2N=C(c3ccccc3)CC2c2cccc(F)c2)cc1 (stereo not drawn) ?
71

###

Molecular target: Cdc42 ACT (Cdc42Q61L) (Homo sapiens, UniProt P60953, Q61L)
Assay: Bead-based flow cytometry dose response, BODIPY-FL-GTP binding
Details: Table 6, R3 analogs; read-out: Cdc42 ACT EC50
Measured attribute: pEC50
Numbers only, as −log10 of the molar value.

For each of the molecules below, note its pEC50.
1. COc1cccc(C2CC(c3ccccc3)=NN2c2ccc(S(N)(=O)=O)cc2)c1 (centres unmarked)
2. NS(=O)(=O)c1ccc(N2N=C(c3ccccc3)CC2c2ccc(Br)cc2)cc1 (centres unmarked)
3. Cc1ccccc1C1CC(c2ccccc2)=NN1c1ccc(S(N)(=O)=O)cc1 (centres unmarked)
4. Cc1ccc(C2CC(c3ccccc3)=NN2c2ccc(S(N)(=O)=O)cc2)cc1 (centres unmarked)
5. NS(=O)(=O)c1ccc(N2N=C(c3ccccc3)CC2c2cccc(Cl)c2)cc1 (centres unmarked)

5.37
5.77
4.87
5.30
5.44
